- assayOverview: HepG2 liver cancer cell viability effects, profiling panel, resazurin fluorescence, 24 h, PK04 Diversity Set (AID 1172); further: test concentration not given here
- testConditions: higher = more signal
Assignment: determine reported z-score for the given compounds.
Please reply with the number alone, leaving off any unit.

Q) Look up z-score for this compound: CNS(=O)(=O)c1ccc(C)cc1
A) 0.925

Q) Try the compound COC(=O)[C@@]1(Cc2ccc(OC)cc2)[C@H]2c3cc(C(=O)N4CCCC4)n(CCN4CNCC4=O)c3C[C@H]2CN1C(=O)c1ccccc1
A) -0.66

Q) Also C=C[C@@H](COC(=O)OC(C)(C)C)N(Cc1ccc(OC)cc1)S(=O)(=O)c1ccc(Br)cc1 , if possible.
A) 0.163

Q) Now the same for CC1CC/C=C\[C@H]2OC34C=CCN(Cc5ccccc5)C(=O)[C@H]3N(CCCO)C(=O)[C@@H]4C2C(=O)O1 (stereo partly drawn)
A) -0.385

Q) Same question, Cc1ccc(S[C@]2(C(=O)NCCCN(C)C)CC(=O)N(Cc3ccccc3C(F)(F)F)[C@@H]2c2ccc(CO)cc2)cc1 this time
A) -0.758

Q) Also check CC(C)(C)OC(=O)CC[C@]1(C(=O)N2CCOCC2)N=C(c2ccc(OCCCO)cc2)O[C@H]1c1ccccc1N=[N+]=[N-]
A) 0.548

Q) Same lookup for O=C1NC(=O)C2C1C=CC(C(O)c1cc(C(F)(F)F)cc(C(F)(F)F)c1)N2Nc1ccccn1 (stereo not drawn) , please.
A) -0.85

Q) Query COc1ccc([Si](C)(C)[C@H]2[C@H](CC(=O)N3Cc4ccccc4C[C@H]3CO)O[C@@]3(C(=O)N(Cc4cccc(N5CCC5=O)c4)c4ccccc43)[C@@H]2C)cc1 next
A) -0.774

====

What composite z-score was measured for each of the following?
- assayOverview: binders from COS7 lysate, DM2A8 probe, primary screen, torsin A project, cell lysate, small-molecule microarray, fluorescence 635/667 (AID 1065)
- testConditions: higher = more signal, COS7 lysate expressing mutant human TOR1A

Q) Item under review: CC1(C)[C@@H]2CC(C(O)C3C=CC4C(=O)N(Cc5ccccc5)C(=O)C4N3n3cnnc3)=C[C@H]1C2 (stereo partly drawn) . Reported composite z-score?
A) 0.839

Q) Let us now turn to O=C1C2C=CC(C(O)CCc3ccccc3)N(Nc3ccccc3F)C2C(=O)N1c1ccccc1 (stereo not drawn)
A) 0.203

Q) What do you get for O=C1C[C@@](C(=O)NCCN2CCOCC2)(c2ccc([N+](=O)[O-])cc2)[C@@H](c2ccc(CO)cc2I)N1CC12CC3CC(CC(C3)C1)C2 ?
A) 0.47

Q) Note, next up: CCCCCCc1nc(-c2ccc(OC)nc2)cc2c1[Si](C(C)C)(C(C)C)O[C@H]2c1ccccc1
A) -0.0924

Q) Same lookup for C=CCC(OC(C)=O)[C@@H]1[C@@H](N(Cc2cccc3ccccc23)C(=O)c2ccc(-c3ccccc3)cc2)c2cc(OCCCO)ccc2N1C(=O)c1ccc2ccccc2c1 (stereo partly drawn) , please.
A) 0.306

Q) Then this compound: C=C[C@H](OC)[C@@H](OC(=O)Nc1ccc(OC)cc1)c1ccc(O)c(F)c1
A) 0.242

Q) # repeat for CC(C)C(O)C1C=CC2C(=O)NC(=O)C2N1Nc1ccc(Cl)cc1Cl (stereo not drawn)
A) 0.206

Q) Then C=C[C@H](C)[C@@H](OC(=O)Nc1ccc(OC)cc1)c1ccc(O)c2ccccc12 ?
A) 0.357
